# Test system: RPE-Neo or RPE-MYC or RPE-MYC expressing an EGFP-Histone 2B fusion protein
# assay.method.text: Phenotypic screening assay (arrest in mitosis, change in DNA content, cell death; GE IN-Cell Analyzer 2000)
# Assay type: cell-based
# experimental.context: Homo sapiens; min. effective conc.; compounds 20 nM to 20 μM; 24, 48 or 72 hours; read-out: Cell Death (>30%)
# Lookup of reported minimal effective concentration keyed by entry

Examples with their reported minimal effective concentration follow.
>>> print(df.to_string())
                                   compound  value_measured
0  CNC(=O)C1=C(O)c2ccccc2N(CC2CC2)C(=O)C1 [Example 70]   30 to 1000 µM
1  CNC(=O)C1=C(O)c2ccccc2N(Cc2ccc(Br)c(F)c2)C(=O)C1 [Example 125]      1 to 10 µM
2  CNC(=O)C1=C(O)c2ccccc2N(Cc2ccc(C(C)C)cc2)C(=O)C1 [Example 87]   30 to 1000 µM

Let us move to another entry and its minimal effective concentration.
**Q:** Provide value of minimal effective concentration for this record tested with RPE-Neo or RPE-MYC or RPE-MYC expressing an EGFP-Histone 2B fusion protein: CNC(=O)C1=C(O)c2ccccc2N(Cc2ccc(F)c(OC)c2)C(=O)C1 [Example 112]
**A:** 1 to 10 µM

// data source = patent US20240270695A1
